System: SF-539
protocol_summary: NCI tumour cell line growth inhibition, 48 h
Active and inactive are the calls of the source. Cut-off read from the data, not from the text of the source: active = GI50 up to about 1.1 µM and inactive = higher.
Each entry below carries its recorded GI50.
assay_endpoint: GI50

> print(dat)
                                   compound               result
1            COc1cccc(/C=N/NC(=O)CN(C)C)c1O  > 100 µM (inactive)
2  O=S(=O)(O)c1cc(/N=[N+](\[O-])c2cc(S(=O)(=O)O)c3ccccc3c2)cc2ccccc12   16.8 µM (inactive)
3  Cc1ccccc1NC(=O)c1cc(-c2ccc([N+](=O)[O-])cc2)nc(S)n1  > 100 µM (inactive)
4  Cc1ccccc1C1OC(=O)c2ccc3ccccc3c21 (stereo not given)   3.27 µM (inactive)
5  OC12COc3ccccc3C1Oc1ccccc1C2 (stereo not given)  > 100 µM (inactive)

###

System: MDA-MB-231
protocol_summary: NCI tumour cell line growth inhibition, 48 h
Calls of active or inactive are those of the source. Rule as the data show it: active = GI50 up to about 1.1 µM and inactive = higher.
assay_endpoint: GI50

> print(dat)
                         compound.structure  assay.endpoint               result
1  CC(C)(C)OC(=O)Cn1ncn(NC(=O)Cc2ccccc2)c1=O            GI50   > 10 µM (inactive)
2  COc1cc([N+](=O)[O-])c(S(=O)(=O)O)cc1-n1nc(-c2ccccc2)n[n+]1-c1cc(S(=O)(=O)[O-])c([N+](=O)[O-])cc1OC            GI50  > 100 µM (inactive)
3  O=S(=O)(O)c1cc(/N=[N+](\[O-])c2cc(S(=O)(=O)O)c3ccccc3c2)cc2ccccc12            GI50  > 100 µM (inactive)
4  CCCCCCCCCCCC[C@H](O)[C@H]1CC[C@H]([C@H](O)CCCC[C@H](O)CCCCC[C@@H](O)CC2=C[C@H](C)OC2=O)O1            GI50   1.88 µM (inactive)

###

Tested on: NCI-H460
protocol_summary: NCI tumour cell line growth inhibition, 48 h
The source made the active and inactive calls. Cut-off read from the data, not from the text of the source: active = GI50 up to about 1.1 µM and inactive = higher.
assay_endpoint: GI50

> print(dat)
                                    compound  measured.target  assay.endpoint               result
 1  CC(=O)OCC1OC(n2c(=O)n(-c3ccccc3)c(=O)c3cc(Br)cc(Br)c32)C(OC(C)=O)C(OC(C)=O)C1OC(C)=O (stereo not given)         NCI-H460            GI50  > 100 µM (inactive)
 2  O=S(=O)(O)c1cc(/N=[N+](\[O-])c2cc(S(=O)(=O)O)c3ccccc3c2)cc2ccccc12         NCI-H460            GI50  > 100 µM (inactive)
 3  COC(=O)C1Cc2c(OC)ccc(OC)c2C(O)C1C(=O)OC (stereo not given)         NCI-H460            GI50  > 100 µM (inactive)
 4  CC(=O)NCCC1CN(C(=O)/C=C\C#C[Si](C)(C)C)c2ccccc21 (stereo not given)         NCI-H460            GI50   28.8 µM (inactive)
 5  COC(=O)c1nc2c3c(cccc3c1C(=O)OC)Nc1ccccc1-2         NCI-H460            GI50   25.7 µM (inactive)
 6  C=CCN1C(=O)CC(=O)N(NC2=NNC3(C(=O)N2)c2ccccc2-c2ccccc23)C1=S         NCI-H460            GI50   26.1 µM (inactive)
 7  COc1ccc(-c2cc(-c3ccc(Nc4ccnc5cc(C(F)(F)F)ccc45)cc3)nc(N)c2C#N)c2ccccc12         NCI-H460            GI50  > 100 µM (inactive)
 8  CC(C)NC(=O)OCc1c(COC(=O)NC(C)C)n(C)c2c1ccc1sccc12         NCI-H460            GI50   5.33 µM (inactive)
 9  CCOC(=O)/C(=C\c1ccnc2ccccc12)P(=O)(OCC)OCC         NCI-H460            GI50   3.48 µM (inactive)
10        c1ccc(CSc2nc3ccccc3nc2-c2cccs2)cc1         NCI-H460            GI50  > 100 µM (inactive)

###

# maps each entry to its GI50
Test system: HT-29
protocol_summary: NCI tumour cell line growth inhibition, 48 h
Active and inactive are the calls of the source. No stated cut-off is given here; in the data, active = GI50 up to about 1.1 µM and inactive = higher.
assay_endpoint: GI50

> print(dat)
                         compound.structure  assay.endpoint               result
1               CC1=NN(c2nc(N)nc(CCl)n2)CC1            GI50   30.4 µM (inactive)
2             COCn1c(C)c(C)c2c(=O)oc(C)nc21            GI50  > 100 µM (inactive)
3  CN(/N=C/c1ccc(OCc2cccc(COc3ccc(C=O)cc3)n2)cc1)c1cnn(-c2ccc(Cl)cc2Cl)c(=O)c1Cl            GI50  > 100 µM (inactive)
4  C=C1c2nc3ccccc3n2C=C(c2ccc(Cl)cc2)N1c1ccc(OCCN2CCCCC2)cc1            GI50   > 45 µM (inactive)
5  CCOC(=O)/C=C(/C(=O)OCC)n1cc(C)c(=O)n(Cc2cn(COCCOC(C)=O)nn2)c1=O            GI50   16.1 µM (inactive)

###

Test system: SK-MEL-28
protocol_summary: NCI tumour cell line growth inhibition, 48 h
Calls of active or inactive are those of the source. Cut-off read from the data, not from the text of the source: active = GI50 up to about 1.1 µM and inactive = higher. Non-standard residues stand in square brackets, D forms with d. Residues, ends and D or L forms follow the SMILES beside them. Peptide text beside a SMILES is read from it. * marks the point of attachment. Trt = c1ccc(C(c2ccccc2)(c2ccccc2)*)cc1; Cbz = O=C(OCc1ccccc1)*
assay_endpoint: GI50

compound	result
CCOC(=O)/C(=C\c1ccnc2ccccc12)P(=O)(OCC)OCC	1.57 µM (inactive)
Nc1nc(N)c(C2=CCNCC2)c(=O)[nH]1	> 100 µM (inactive)
CC(=O)Nc1cc(Nc2cc(O)nc(O)n2)ccc1C	> 100 µM (inactive)
CCc1cc2c(c3c1CCCC3)CC1(Cc3ccc(C(=O)OC)cc3C1)C2 (stereo unspecified)	> 100 µM (inactive)
CC(C)Oc1c(O)c2c3c(oc(=O)n3C=CC2c2ccccc2)c1OC(C)C (stereo unspecified)	22.5 µM (inactive)
CN(C)c1cccc2c1C(=O)C=CC21c2ccc(N(C)C)c3c(N(C)C)ccc(c23)C(c2ccccc2)C1c1ccccc1 (stereo unspecified)	17.5 µM (inactive)
Cc1ccccc1NC(=O)c1cc(-c2ccc([N+](=O)[O-])cc2)nc(S)n1	> 100 µM (inactive)
COc1c(O)cc2c(c1O)C(=O)/C(=C/c1ccc(O)cc1)CO2	17.7 µM (inactive)
Cc1cn(CC2=NCC(O)CN2)c(=O)[nH]c1=O (stereo unspecified)	> 100 µM (inactive)
CCCCN1C(=O)CS/C1=N/Nc1nc2c([nH]1)c(=O)n(C)c(=O)n2C	20 µM (inactive)
C[C@H]1[C@H](C)CC[C@]2(C(=O)OC3OC(CO)C(O)C(O)C3O)CC[C@]3(C)C(=CC[C@@H]4[C@@]5(C)C[C@@H](O)[C@@H]6OC(=O)c7cc(O)c(O)c(O)c7-c7c(cc(O)c(O)c7O)C(=O)OC[C@]6(CO)[C@@H]5CC[C@]43C)[C@H]12 (stereo partly specified)	> 100 µM (inactive)
O=C1CCCCC(=O)OC2(CCCCC2=O)CC1 (stereo unspecified)	> 100 µM (inactive)
CC(C)C[C@H](NC(=O)[C@H](CC(C)C)NC(=O)[C@@H](Cc1c[nH]c2ccccc12)NC(=O)[C@H](Cc1ccccc1)NC(=O)[C@@H](Cc1c[nH]c2ccccc12)NC(=O)[C@H](CCC(N)=O)NC(=O)[C@H](CCC(N)=O)NC(=O)[C@H]1CCCN1C(=O)[C@@H](N)CCCCN)C(N)=O (H-K[dP]QQ[dW]F[dW]LL-NH2)	> 100 µM (inactive)
CS(=O)(=O)N1CC(CCl)c2ccc(O)cc21 (stereo unspecified)	3.4 µM (inactive)
COC(=O)c1nc2c3c(cccc3c1C(=O)OC)Nc1ccccc1-2	59.7 µM (inactive)
O=C(O)c1ccccc1-c1ccccc1C(=O)Nc1ccc2c(c1)Cc1ccccc1-2	40.8 µM (inactive)
OC(CCN1CCN(CCOC(c2ccccc2)c2ccccc2)CC1)c1ccccc1 (stereo unspecified)	17.9 µM (inactive)
CCCCCCCCCCCC[C@H](O)[C@H]1CC[C@H]([C@H](O)CCCC[C@H](O)CCCCC[C@@H](O)CC2=C[C@H](C)OC2=O)O1	4.51 µM (inactive)
COCn1c(C)c(C)c2c(=O)oc(C)nc21	> 100 µM (inactive)
NC(=O)N/N=C1/CCC(O)CC1CC(=O)O (stereo unspecified)	> 100 µM (inactive)
COC(=O)C(CO)NC(=O)C(CSC(c1ccccc1)(c1ccccc1)c1ccccc1)NC(=O)OCc1ccccc1 (stereo unspecified) (Cbz-Cys(Trt)-Ser-OMe; configuration not given here)	17 µM (inactive)
